- Tested on: S. epidermidis ATCC 14990
- assayDetails: MIC, broth macrodilution (CLSI)
- Type: cell-based, Staphylococcus epidermidis
- testParameters: S. epidermidis ATCC14990
measuredProperty: MIC (µg/mL)
Report the figure in µg/mL without appending any unit label.

Using the record for CCCCCCCCCCCCCCCC(=O)NCC1OC(OC2C(O)C(NC(=N)N)CC(NC(=N)N)C2OC2OC(CNC(=N)N)C(O)C(O)C2NC(=N)N)C(O)C1OC1OC(CNC(=N)N)C(O)C(O)C1NC(=N)N.O=C(O)C(F)(F)F.O=C(O)C(F)(F)F.O=C(O)C(F)(F)F.O=C(O)C(F)(F)F.O=C(O)C(F)(F)F.O=C(O)C(F)(F)F (stereo not shown) [Compound 10] , state its measured MIC. 1

* * *

- Test system: E. faecalis ATCC 29212
- assayDetails: MIC, broth macrodilution (CLSI)
- Format: cell-based, Enterococcus faecalis
- testParameters: E. faecalis ATCC29212
MIC reference
Report the figure in µg/mL without appending any unit label.

compound	MIC (µg/mL)
CCCCCCCCCCCC(=O)NCC1OC(OC2C(O)C(NC(=N)N)CC(NC(=N)N)C2OC2OC(CNC(=N)N)C(O)C(O)C2NC(=N)N)C(O)C1OC1OC(CNC(=N)N)C(O)C(O)C1NC(=N)N.O=C(O)C(F)(F)F.O=C(O)C(F)(F)F.O=C(O)C(F)(F)F.O=C(O)C(F)(F)F.O=C(O)C(F)(F)F.O=C(O)C(F)(F)F (centres unmarked)	32
CCCCCCCCCCCCCCCC(=O)NCC1OC(OC2C(N)CC(N)C(OC3OC(CN)C(O)C(O)C3O)C2O)C(O)C(N)C1O.O=C(O)C(F)(F)F.O=C(O)C(F)(F)F.O=C(O)C(F)(F)F.O=C(O)C(F)(F)F (centres unmarked)	8
N=C(N)NCC1OC(OC2C(CNC(=O)CCCc3ccc4ccc5cccc6ccc3c4c56)OC(OC3C(O)C(NC(=N)N)CC(NC(=N)N)C3OC3OC(CNC(=N)N)C(O)C(O)C3NC(=N)N)C2O)C(NC(=N)N)C(O)C1O.O=C(O)C(F)(F)F.O=C(O)C(F)(F)F.O=C(O)C(F)(F)F.O=C(O)C(F)(F)F.O=C(O)C(F)(F)F.O=C(O)C(F)(F)F (centres unmarked)	32
CCCCCCCCCCCCCCCC(=O)NCC1OC(OC2C(NC(=N)N)CC(NC(=N)N)C(OC3OC(CNC(=N)N)C(O)C(O)C3O)C2O)C(O)C(NC(=N)N)C1O.O=C(O)C(F)(F)F.O=C(O)C(F)(F)F.O=C(O)C(F)(F)F.O=C(O)C(F)(F)F (centres unmarked)	16

Turning now to a further record.
Using the record for CCCCCCCCCCCCCCCC(=O)NCC1OC(OC2C(O)C(NC(=N)N)CC(NC(=N)N)C2OC2OC(CNC(=N)N)C(O)C(O)C2NC(=N)N)C(O)C1OC1OC(CNC(=N)N)C(O)C(O)C1NC(=N)N.O=C(O)C(F)(F)F.O=C(O)C(F)(F)F.O=C(O)C(F)(F)F.O=C(O)C(F)(F)F.O=C(O)C(F)(F)F.O=C(O)C(F)(F)F (centres unmarked) , state its measured MIC. 4

* * *

- Test system: E. faecalis ATCC 29212
- assayDetails: MIC, broth macrodilution (CLSI)
- Format: cell-based, Enterococcus faecalis
- testParameters: E. faecalis ATCC29212
measuredProperty: MIC (µg/mL)
Report the figure in µg/mL without appending any unit label.

molecule	unitsText	MIC
CCCCC/C=C\C/C=C\CCCCCCCC(=O)NCC1OC(OC2C(O)C(NC(=N)N)CC(NC(=N)N)C2OC2OC(CNC(=N)N)C(O)C(O)C2NC(=N)N)C(O)C1OC1OC(CNC(=N)N)C(O)C(O)C1NC(=N)N.O=C(O)C(F)(F)F.O=C(O)C(F)(F)F.O=C(O)C(F)(F)F.O=C(O)C(F)(F)F.O=C(O)C(F)(F)F.O=C(O)C(F)(F)F (centres unmarked)	µg/mL	64

Turning now to a further record.
Using the record for CCCCCCCCCCCCCCCCCCCC(=O)NCC1OC(OC2C(O)C(NC(=N)N)CC(NC(=N)N)C2OC2OC(CNC(=N)N)C(O)C(O)C2NC(=N)N)C(O)C1OC1OC(CNC(=N)N)C(O)C(O)C1NC(=N)N.O=C(O)C(F)(F)F.O=C(O)C(F)(F)F.O=C(O)C(F)(F)F.O=C(O)C(F)(F)F.O=C(O)C(F)(F)F.O=C(O)C(F)(F)F (centres unmarked) , state its measured MIC. 32

* * *

- Test system: MRSE CAN-ICU 61589
- assayDetails: MIC, broth macrodilution (CLSI)
- Assay type: cell-based, methicillin-resistant Staphylococcus epidermidis
MIC reference
Report the figure in µg/mL without appending any unit label.

molecule	MIC (µg/mL)
CCCCCCCCCCCCCCCC(=O)NCC1OC(OC2C(NC(=N)N)CC(NC(=N)N)C(OC3OC(CNC(=N)N)C(O)C(O)C3O)C2O)C(O)C(NC(=N)N)C1O.O=C(O)C(F)(F)F.O=C(O)C(F)(F)F.O=C(O)C(F)(F)F.O=C(O)C(F)(F)F (stereo not drawn)	8
CCCCC/C=C\C/C=C\CCCCCCCC(=O)NC[C@H]1O[C@@H](O[C@@H]2[C@@H](O)[C@H](N)C[C@H](N)[C@H]2O[C@H]2O[C@H](CN)[C@@H](O)[C@H](O)[C@H]2N)[C@H](O)[C@@H]1O[C@H]1O[C@@H](CN)[C@@H](O)[C@H](O)[C@H]1N.O=C(O)C(F)(F)F.O=C(O)C(F)(F)F.O=C(O)C(F)(F)F.O=C(O)C(F)(F)F.O=C(O)C(F)(F)F.O=C(O)C(F)(F)F	4
CCCCCCCCCCCCCCCC(=O)NCC1OC(OC2C(O)C(NC(=N)N)CC(NC(=N)N)C2OC2OC(CNC(=N)N)C(O)C(O)C2NC(=N)N)C(O)C1OC1OC(CNC(=N)N)C(O)C(O)C1NC(=N)N.O=C(O)C(F)(F)F.O=C(O)C(F)(F)F.O=C(O)C(F)(F)F.O=C(O)C(F)(F)F.O=C(O)C(F)(F)F.O=C(O)C(F)(F)F (stereo not drawn)	4
CCCCCCCCCCCC(=O)NCC1OC(OC2C(O)C(NC(=N)N)CC(NC(=N)N)C2OC2OC(CNC(=N)N)C(O)C(O)C2NC(=N)N)C(O)C1OC1OC(CNC(=N)N)C(O)C(O)C1NC(=N)N.O=C(O)C(F)(F)F.O=C(O)C(F)(F)F.O=C(O)C(F)(F)F.O=C(O)C(F)(F)F.O=C(O)C(F)(F)F.O=C(O)C(F)(F)F (stereo not drawn)	2
N=C(N)NCC1OC(OC2C(CNC(=O)CCCc3ccc4ccc5cccc6ccc3c4c56)OC(OC3C(O)C(NC(=N)N)CC(NC(=N)N)C3OC3OC(CNC(=N)N)C(O)C(O)C3NC(=N)N)C2O)C(NC(=N)N)C(O)C1O.O=C(O)C(F)(F)F.O=C(O)C(F)(F)F.O=C(O)C(F)(F)F.O=C(O)C(F)(F)F.O=C(O)C(F)(F)F.O=C(O)C(F)(F)F (stereo not drawn)	8

Turning now to a further record.
Using the record for CCCCCCCCCCCCCCCCCCCC(=O)NCC1OC(OC2C(O)C(NC(=N)N)CC(NC(=N)N)C2OC2OC(CNC(=N)N)C(O)C(O)C2NC(=N)N)C(O)C1OC1OC(CNC(=N)N)C(O)C(O)C1NC(=N)N.O=C(O)C(F)(F)F.O=C(O)C(F)(F)F.O=C(O)C(F)(F)F.O=C(O)C(F)(F)F.O=C(O)C(F)(F)F.O=C(O)C(F)(F)F (stereo not drawn) , state its measured MIC. 4

* * *

MIC reference
- Test system: P. aeruginosa (gentamicin-resistant) CAN-ICU 62308
- assayDetails: MIC, broth macrodilution (CLSI)
- Format: cell-based
- testParameters: P. aeruginosa CAN-ICU 62308
Report the figure in mg/L without appending any unit label.

Consider the worked cases shown below.
compound	measurementTarget	MIC (mg/L)
N=C(N)NCC1OC(OC2C(CNC(=O)CCCc3ccc4ccc5cccc6ccc3c4c56)OC(OC3C(O)C(NC(=N)N)CC(NC(=N)N)C3OC3OC(CNC(=N)N)C(O)C(O)C3NC(=N)N)C2O)C(NC(=N)N)C(O)C1O.O=C(O)C(F)(F)F.O=C(O)C(F)(F)F.O=C(O)C(F)(F)F.O=C(O)C(F)(F)F.O=C(O)C(F)(F)F.O=C(O)C(F)(F)F (stereo not drawn)	P. aeruginosa (gentamicin-resistant) CAN-ICU 62308	16
CCCCC/C=C\C/C=C\CCCCCCCC(=O)NC[C@H]1O[C@@H](O[C@@H]2[C@@H](O)[C@H](N)C[C@H](N)[C@H]2O[C@H]2O[C@H](CN)[C@@H](O)[C@H](O)[C@H]2N)[C@H](O)[C@@H]1O[C@H]1O[C@@H](CN)[C@@H](O)[C@H](O)[C@H]1N.O=C(O)C(F)(F)F.O=C(O)C(F)(F)F.O=C(O)C(F)(F)F.O=C(O)C(F)(F)F.O=C(O)C(F)(F)F.O=C(O)C(F)(F)F	P. aeruginosa (gentamicin-resistant) CAN-ICU 62308	128

Turning now to a further record.
// fetch MIC for CC(CCC(=O)NCC1OC(OC2C(O)C(NC(=N)N)CC(NC(=N)N)C2OC2OC(CNC(=N)N)C(O)C(O)C2NC(=N)N)C(O)C1OC1OC(CNC(=N)N)C(O)C(O)C1NC(=N)N)C1CCC2C3C(O)CC4CC(O)CCC4(C)C3CC(O)C12C.O=C(O)C(F)(F)F.O=C(O)C(F)(F)F.O=C(O)C(F)(F)F.O=C(O)C(F)(F)F.O=C(O)C(F)(F)F.O=C(O)C(F)(F)F (stereo not drawn) ; system: P. aeruginosa (gentamicin-resistant) CAN-ICU 62308 32
